Hey, just so you know, these numbers are from patent US20210032312A1.

Measured Cyno T-cell Binding 0.2 uM (MFI) by item
molecular target: T1, cynomolgus monkey CD8 alpha on primary cynomolgus CD8+ T cells (cynomolgus monkey, UniProt P01732 23-235 (human entry)); assay: flow cytometry, cyno CD8+ T cells
T1 construct: also called Cyno CD8alpha; cyno CD8A
T1 sequence (P01732 other isoform, or with tags, fused parts or gaps limits assumed): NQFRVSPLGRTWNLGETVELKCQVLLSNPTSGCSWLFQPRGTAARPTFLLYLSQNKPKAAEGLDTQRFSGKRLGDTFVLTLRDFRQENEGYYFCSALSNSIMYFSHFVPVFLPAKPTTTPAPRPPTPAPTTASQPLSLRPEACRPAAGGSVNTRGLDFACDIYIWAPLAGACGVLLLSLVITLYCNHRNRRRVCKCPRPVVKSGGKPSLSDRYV

{"columns": ["binder", "Cyno T-cell Binding 0.2 uM (MFI)"],
 "data": [
  ["P283BR9P1363_F6 (designed binder, FN3 domain) LPAPKNLVVSRVTEDSARLSWPEEAVTATSFDSFLIQYQESEKVGEAIVLTVPGSERSYDLTGLKPGTEYTVSIYGVDVKWEGNRPVASNPLSAIFTT", "4570 MFI"],
  ["P283DR9P1364_B11 (designed binder, FN3 domain) LPAPKNLVVSRVTEDSARLSWTAPDAAFDSFYISYPEWEQLGEAIVLTVPGSERSYDLTGLKPGTEYFVVIYGVKGGALSAPLSAIFTT", "1590 MFI"],
  ["P283DR9P1364_D8 (designed binder, FN3 domain) LPAPKNLVVSRVTEDSARLSWTAPDAAFDSFQIAYPETPIQGEAIVLTVPGSERSYDLTGLKPGTEYFVIIHGVKGGITSFPLSAIFTT", "365 MFI"]
]}
